target: human PD-L1 (Homo sapiens (Human), UniProt Q9NZQ7); test: T cell activation luciferase reporter cell culture system (T Cell Activation Assay); format: cell-based; settings: luciferase reporter assay; PD-L1 aAPC/CHO-K1 cells with PD-1 effector Jurkat T cells
Sequence (Q9NZQ7 19-290): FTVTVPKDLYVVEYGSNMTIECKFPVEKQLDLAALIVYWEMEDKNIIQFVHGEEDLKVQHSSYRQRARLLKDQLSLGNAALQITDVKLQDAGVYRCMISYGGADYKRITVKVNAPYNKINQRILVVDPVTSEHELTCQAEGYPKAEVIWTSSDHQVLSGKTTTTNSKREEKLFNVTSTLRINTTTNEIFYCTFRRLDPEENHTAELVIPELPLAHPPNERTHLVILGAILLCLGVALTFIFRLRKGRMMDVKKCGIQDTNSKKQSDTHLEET
Reported EC50 values for a set of compounds
Answer with a number only, understood to be in µM.

compound	EC50, µM
COc1nc(-c2cccc(-c3nccc(-c4ccc(CN5CC6(CNC(=O)C6)C5)c(OC)n4)c3Cl)c2Cl)ccc1CN1CC2(CNC(=O)C2)C1 [Compound 573]	0.0144
COc1cc(-c2nccc(-c3cccc(-c4ccc(CN(C)CC5CN(C(C)=O)C5)c(OC)n4)c3Cl)c2Cl)ccc1CN(C)CC1CN(C(C)=O)C1 [Example 499]	0.0885
COc1cc(-c2nccc(-c3cccc(-c4ccc(CNC[C@@H]5CCC(=O)N5)c(OC)n4)c3Cl)c2Cl)ccc1CN1CC[C@H](C(=O)OC(C)C)C1 [Cmpd 76]	0.0897

Would you kindly look at the next entry?
Exercise: Quick one: EC50 of COc1nc(-c2cccc(-c3ccnc(-c4cc(OC)c5nc(CN[C@H]6C[C@](C)(O)C6)cn5c4)c3Cl)c2Cl)ccc1CNC[C@@H]1CCC(=O)N1 [Example 312] ?
Key: 0.178
